assay: chemical genetic growth profiling, strain panel (AID 1159580);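 further: tested at 20 µM; growth read once vehicle control cultures reached saturation at 30 °C; 1 = growth at the plate median or of vehicle wells; lower values mean less growth of the strain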; details: S. cerevisiae deletion strains, growth OD, locus YPL078C, strain atp4, stronger effect = lower value
Out of some 5,500 compounds screened, about 2,000 (36%) were called active. Another 18% or so got no clear call; they are omitted. Some of the results follow.
readout: normalized growth
Give a plain numeric answer without units written out.

### Prompt Report normalized growth for `CCC(C)(C)C(=O)O[C@H]1C[C@@H](C)C=C2C=C[C@H](C)[C@H](CC[C@@H]3C[C@@H](O)CC(=O)O3)[C@H]21` please.
### Response 0.983

### Prompt Report normalized growth for `OC(Cn1cncn1)(Cn1cncn1)c1ccc(F)cc1F` please.
### Response 0.992

### Prompt Report normalized growth for `CCCCNc1ccc(C(=O)OCCN(C)C)cc1` please.
### Response 1.04

### Prompt Report normalized growth for O=C1CC2OCC=C3CN4CC[C@]56c7ccccc7N1C5[C@H]2[C@H]3CC46 (some centres not stated) please.
### Response 1.02

### Prompt Report normalized growth for NC(CO)C(=O)NNCc1ccc(O)c(O)c1O (configuration not stated) please.
### Response 1.02

### Prompt Report normalized growth for COc1cc2c(cc1OC)C1Cc3ccc(OC)c(OC)c3CN1CC2 (configuration not stated) please.
### Response 0.981

### Prompt Report normalized growth for NS(=O)(=O)c1cc2c(cc1Cl)NC(C(Cl)Cl)NS2(=O)=O (configuration not stated) please.
### Response 1

### Prompt Report normalized growth for `CC[N+](CC)(CC)CCOc1cccc(OCC[N+](CC)(CC)CC)c1OCC[N+](CC)(CC)CC` please.
### Response 1.02

### Prompt Report normalized growth for `COC(=O)C[C@H]1C(C)(C)C(=O)[C@@H]2CC3=C(CC[C@]4(C)C3=CC(=O)O[C@H]4c3ccoc3)[C@@]1(C)C2=O` please.
### Response 0.996

### Prompt Report normalized growth for `CCCCN(CCCC)CCCOC(=O)c1ccc(N)cc1` please.
### Response 0.988

### Prompt Report normalized growth for `OCCOCCN1CCN(C2=Nc3ccccc3Sc3ccccc32)CC1` please.
### Response 1.01

### Prompt Report normalized growth for CC[C@H](C)C(=O)O[C@H]1CCC=C2C=C[C@H](C)C(CCC3C[C@@H](O)CC(=O)O3)[C@H]21 (some centres not stated) please.
### Response 1.01

### Prompt Report normalized growth for `COc1ccc(CCN2CCC(Nc3nc4ccccc4n3Cc3ccc(F)cc3)CC2)cc1` please.
### Response 0.975

### Prompt Report normalized growth for `COc1c(OC)c2occc2c2oc(=O)ccc12` please.
### Response 0.932

### Prompt Report normalized growth for `CCCCOC(=O)c1ccccc1C(=O)OCCCC` please.
### Response 0.98

### Prompt Report normalized growth for CC(C)NCC(O)COc1cccc2ccccc12 (configuration not stated) please.
### Response 1.06

### Prompt Report normalized growth for C=C1C(=O)OC2CC1C(OC(C)=O)C/C(C)=C/CC/C(C)=C/CC[C@]2(C)O (some centres not stated) please.
### Response 0.96

### Prompt Report normalized growth for `O=C1OC2(c3ccc(O)cc3Oc3cc(O)ccc32)c2ccccc21` please.
### Response 0.992

### Prompt Report normalized growth for `CC[C@H](C)C(=O)O[C@H]1C[C@@H](C)C=C2C=C[C@H](C)[C@H](CC[C@@H]3C[C@@H](O)CC(=O)O3)[C@H]21` please.
### Response 1.01

### Prompt Report normalized growth for `N[C@@H](CC(=O)N1CCn2c(nnc2C(F)(F)F)C1)Cc1cc(F)c(F)cc1F` please.
### Response 0.992

### Prompt Report normalized growth for `CCCCC(=O)Oc1ccccc1C(=O)O` please.
### Response 0.977

### Prompt Report normalized growth for `CCCCOC(=O)c1ccc(N)cc1` please.
### Response 0.795
